- measured_target: 14-3-3γ (Homo sapiens, UniProt P61981)
- Construct: made in house; host or cells: E. coli NiCo21 (DE3)
- Sequence (P61981 whole entry): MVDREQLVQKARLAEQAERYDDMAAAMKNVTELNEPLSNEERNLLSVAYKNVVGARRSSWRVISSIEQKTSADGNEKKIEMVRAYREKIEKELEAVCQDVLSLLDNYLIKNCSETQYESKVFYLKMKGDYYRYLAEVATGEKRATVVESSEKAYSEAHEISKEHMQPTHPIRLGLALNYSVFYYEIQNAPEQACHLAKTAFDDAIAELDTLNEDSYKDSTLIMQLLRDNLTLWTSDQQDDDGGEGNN
- protocol_description: Isothermal titration calorimetry (ITC) of 14-3-3 binding to peptide
- cond: Table S6; ITC, 25 °C; run 1
Where a SMILES comes first, the peptide text is derived from it. [ ]: non-standard residue; d: D form. ξ: configuration not given here. Phe(4-NO2) = N[C@@H](Cc1ccc([N+](=O)[O-])cc1)C(=O)O; ξAla(4-thiazolyl) = NC(Cc1cscn1)C(=O)O; pS = N[C@@H](COP(=O)(O)O)C(=O)O; β3hS = N[C@@H](CO)CC(=O)O; Nva = CCC[C@H](N)C(=O)O; ξβ3hS = NC(CO)CC(=O)O; βAla = NCCC(=O)O
Exercise: for every item that follows, state its recorded ΔG.

The value of ΔG recorded for CCC[C@H](NC(=O)[C@H](N)CCCCN)C(=O)N[C@@H](Cc1ccc([N+](=O)[O-])cc1)C(=O)NC(Cc1cscn1)C(=O)N[C@@H](COP(=O)(O)O)C(=O)N[C@@H](Cc1ccc([N+](=O)[O-])cc1)C(=O)N[C@@H](CO)CC(=O)NCCC(=O)N[C@@H](Cc1ccccc1)C(=O)N[C@@H](CCCCN)C(N)=O (stereo partly drawn) [5b] (H-[dK][Nva][Phe(4-NO2)][ξAla(4-thiazolyl)][pS][Phe(4-NO2)][β3hS][βAla]FK-NH2; N-terminus and C-terminus assumed) when tested on 14-3-3γ (Homo sapiens, UniProt P61981) reads -7,943 kcal mol^-1

The value of ΔG recorded for CCC[C@H](NC(=O)[C@H](N)CCCCN)C(=O)N[C@@H](Cc1ccc([N+](=O)[O-])cc1)C(=O)NC(Cc1cscn1)C(=O)N[C@@H](COP(=O)(O)O)C(=O)N[C@@H](Cc1ccc([N+](=O)[O-])cc1)C(=O)N[C@@H](CO)CC(=O)NCCC(=O)N[C@@H](C)C(=O)N[C@@H](CCCCN)C(N)=O (stereo partly drawn) [5c] (H-[dK][Nva][Phe(4-NO2)][ξAla(4-thiazolyl)][pS][Phe(4-NO2)][β3hS][βAla]AK-NH2; N-terminus and C-terminus assumed) when tested on 14-3-3γ (Homo sapiens, UniProt P61981) reads -7,446 kcal mol^-1

The value of ΔG recorded for CCC[C@H](NC(=O)[C@H](N)CCCCN)C(=O)N[C@@H](Cc1ccc([N+](=O)[O-])cc1)C(=O)NC(Cc1cscn1)C(=O)N[C@@H](COP(=O)(O)O)C(=O)N[C@@H](Cc1ccc([N+](=O)[O-])cc1)C(=O)NC(CO)CC(=O)NCCC(=O)N[C@@H](Cc1ccc([N+](=O)[O-])cc1)C(=O)N[C@@H](CCCCN)C(N)=O (stereo partly drawn) [compound 1] (H-[dK][Nva][Phe(4-NO2)][ξAla(4-thiazolyl)][pS][Phe(4-NO2)][ξβ3hS][βAla][Phe(4-NO2)]K-NH2) when tested on 14-3-3γ (Homo sapiens, UniProt P61981) reads -10,03 kcal mol^-1
